Tested on: CEM cells HIV-1 protection, formazan growth assay
PROCEDURE_SUMMARY: NCI AIDS Antiviral Assay
ENDPOINT_NAME: EC50

Solved entries:
Cc1ccc(-c2n[nH]c(=O)n2/N=C\c2ccccc2)cc1    > 200 µM
O=C1CS(=O)c2ccccc2N1 (centres undefined)    > 372 µM
CC(C)C(N=C1CC2CCC1(C(=O)Nc1ccccc1O)C2(C)C)c1ccccc1 (centres undefined)    20 µM
CCCNC(=O)Cn1c2c(c3ccccc31)CCCC2    > 200 µM
[N-]=[N+]=Nc1cc(=O)[nH]c2ccccc12    > 200 µM

Batch lookup, EC50 per entry.
1. CCOC(=O)C(NC(=O)CC)(Nc1ccc(F)c(Cl)c1)C(F)(F)F (centres undefined)
2. CSC1=N/C(=C\c2ccc(Cl)cc2)C(=O)N1CN1CCCCC1
3. COC(=O)c1nc(N)[nH]c(=O)c1-c1ccc(Cl)cc1
4. Cc1c2ccccc2nc(CS(=O)(=O)CCO)[n+]1[O-]

1: > 200 µM; 2: > 200 µM; 3: 251 µM; 4: > 200 µM

Batch lookup, EC50 per entry.
1. COc1ccc(CCNC(=O)[C@H]2CCCC[C@@H]2CCO)cc1OC
2. O=C(O)[C@H]1CCCN1C(=O)c1ccccc1SSc1ccccc1C(=O)N1CCC[C@H]1C(=O)O
3. C/C(O)=C(\C=N/C(=S)Nc1ccccc1)C(=O)Nc1ccccc1
4. CC1(CO)COC(C)(C)OC1
5. Clc1ccc(-c2nnc(-c3nn(-c4ccccc4)c4nc5ccccc5nc34)o2)cc1

["> 200 µM", "> 200 µM", "> 200 µM", "> 1550 µM", "> 1.29 µM"]

---

Tested on: CEM cells HIV-1 protection, formazan growth assay
PROCEDURE_SUMMARY: NCI AIDS Antiviral Assay
EXPERIMENTAL_SETUP: measured here: growth of uninfected CEM cells
Kindly supply the reported IC50 values for the records listed here.

O=[N+]([O-])c1ccccc1P1(=O)OCCO1    > 200 µM
COc1cc(C(=O)O[C@@H]2[C@@H](OC(=O)c3cc(OC)c(OC)c(OC)c3)[C@@H](OC)O[C@@H]3CO[C@@H](c4ccccc4)O[C@@H]23)cc(OC)c1OC    > 200 µM
CC(C)CNC(=O)c1c(NC(=O)c2ccccc2)sc2[nH]c(=O)n(-c3ccccc3)c(=O)c12    > 50.1 µM
COc1ccccc1/C=C(\NC(=O)c1ccccc1)C(=O)NC(C)C    > 200 µM
O=C(O)c1ccc([As](=O)(O)O)c([N+](=O)[O-])c1    > 200 µM

Batch lookup, IC50 per entry.
1. Nc1c(S(=O)(=O)c2ccc(Cl)cc2)c2nc3ccccc3nc2n2ccnc12
2. CNC(=O)C(C)C1C(=O)/C(=C(O)/C=C\C(C)=C\C(C)C2OC3(C)OC(C=CC34CO4)C2C)C(=O)N1C1CCC(O)C(C)O1 (stereo not given)
3. CN1CCCC2[C@@H]3CCC4=C(O)C(=O)CC[C@]4(C)C3CC[C@@]21C (stereo not given in full)
4. Oc1[nH]c2ccccc2c1N=NC1=NCCCCN1
5. CC(C)(c1ccsc1)c1sccc1C(=O)O

> 200 µM
> 31.6 µM
> 74.1 µM
> 200 µM
> 200 µM

---

Test system: CEM cells HIV-1 protection, formazan growth assay
PROCEDURE_SUMMARY: NCI AIDS Antiviral Assay
pEC50: −log10 of the molar value.
Kindly supply the reported pEC50 values for the records listed here.

Solved entries:
N#Cc1c(/C=C/c2ccccc2)c2c([nH]c1=S)CCCCC2    3.47
O=c1ccc2cc3ccoc3c(OCCCCCCCCCCCCOc3c4occc4cc4ccc(=O)oc34)c2o1    < 4.41
Cc1cc(=O)[nH]c(N/N=C/c2ccc(Cl)c(Cl)c2)n1    < 4.61
CCCCCOC(=S)S    < 3.70
CNC(=O)CN(CC(=O)O)C(=O)NC    < 2.91
CCOC(=O)C(NS(=O)(=O)c1ccccc1)(C(F)(F)F)P(=O)(OCC(C)C)OCC(C)C (centres undefined)    < 3.70
Cn1c(=O)c2nc(-c3ccc(Cl)c(Cl)c3)c(-c3ccc(Cl)c(Cl)c3)nc2n(C)c1=O    < 3.70
C[C@@H](CC(=O)OCc1ccccc1)OC1OC(COC(=O)C(C)(C)C)C(OC(=O)C(C)(C)C)C(OC(=O)C(C)(C)C)C1OC(=O)C(C)(C)C (some centres undefined)    < 3.70
CC(C)N(C(=O)C12C3C4C1C1C2C3C41C(=O)O)C(C)C (centres undefined)    < 3.89
COC(=O)C(=O)C(C(C)=O)C(=O)NCc1ccccc1 (centres undefined)    4.32

Batch lookup, pEC50 per entry.
1. Cc1cc(Cl)ccc1NC(=O)/C(Cc1nc2ccc(C(=O)c3ccccc3)cc2[nH]c1=O)=N/NC(=O)c1ccncc1
2. O=C1/C(=C/c2ccc(Cl)cc2)CCC/C1=C\c1ccc(O)c(CN2CCCCC2)c1
3. CCC[CH2][Sn]1([CH2]CCC)[O]CC(c2ccccn2)C[O]1
4. CCOc1cc2c(cnc3c4cc(OC)c(OC)cc4ccc23)cc1OC

< 3.65
< 4.00
< 4.31
< 4.56

---

Test system: CEM cells HIV-1 protection, formazan growth assay
PROCEDURE_SUMMARY: NCI AIDS Antiviral Assay;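 active means compounds giving half or more protection of infected cells from virus-caused growth loss, again on retest; inactive means the rest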
Allowed answers: true (1) for active, false (0) for inactive

Some entries whose results are on file:
O=C(O)CCC(NC(=O)c1ccc(Nc2nc3ccccc3nc2-c2cccs2)cc1)C(=O)O (centres undefined)    false (0)
CC1C(=O)C2C1CS2(=O)=O (centres undefined)    false (0)
Nc1nc(=S)c2ncn(C3CC(O)C(CO)O3)c2[nH]1 (centres undefined)    false (0)
O=C(O)CCCCSCCCCCCSCCCCC(=O)O    false (0)
CCOC(=O)CC(=O)C(=O)NNC1=NCCCN1    false (0)
CC1(c2nc3ccccc3[nH]2)CCC(C#N)C(C)(C)O1 (centres undefined)    false (0)

# lookup: test call for O=C1c2ccccc2S(=O)(=O)c2ccccc21
true (1)

# lookup: test call for COc1ccccc1-c1cc(=O)c2ccc(OC)c(OC)c2o1
false (0)

# lookup: test call for c1ccc(SCCP(CCP(c2ccccc2)c2ccccc2)c2ccccc2)cc1 (centres undefined)
false (0)

# lookup: test call for CO/N=C(/C(=O)N(C(=O)/C(=N/OC)c1csc(NC(c2ccccc2)(c2ccccc2)c2ccccc2)n1)n1cnn(CC(=O)OC(C)(C)C)c1=O)c1csc(NC(c2ccccc2)(c2ccccc2)c2ccccc2)n1
false (0)

# lookup: test call for O=C(Nc1sccc1S(=O)(=O)c1ccccc1)c1ccccc1
false (0)

---

Tested on: CEM cells HIV-1 protection, formazan growth assay
PROCEDURE_SUMMARY: NCI AIDS Antiviral Assay
EXPERIMENTAL_SETUP: measured here: growth of uninfected CEM cells
Kindly supply the reported IC50 values for the records listed here.

OC(CNc1ncccn1)c1ccccc1 (centres undefined)    > 200 µM
CCCCCCCN=C(N)CSSCC(N)=NCCCCCCC    10.2 µM
CCC(=O)N(c1ccccc1)C(C)CN1CCC(O)(c2ccccc2)CC1 (centres undefined)    > 200 µM
COC/C=C\[C@@]1(O)CCCC[C@@H]1CC(OC)OC    1.23 µM
Cc1cc(OCc2nnc3n2S(=O)(=O)c2ccccc2N3C)ccc1Cl    > 200 µM

Batch lookup, IC50 per entry.
1. COc1cc2c(OC)cc1CSCc1sc(C)c(c1Br)CSC2
2. O[C@H]1c2cccn2-c2ccccc2S[C@H]1c1ccccc1
3. CC(C)(C)OC(=O)N1CCCC1C(=O)NC(c1ccccc1)c1ccccc1 (centres undefined)
4. CC1(C)OC[C@@H](C[C@H](O)COCc2ccccc2)O1
5. CO[C@H]1C[C@@H]2CC[C@@H](C)[C@@](O)(O2)C(=O)C(=O)N2CCCC[C@H]2C(=O)O[C@H]([C@H](C)C[C@@H]2CC[C@@H](O)[C@H](OC)C2)CC(=O)[C@H](C)C=C(C)[C@@H](O)[C@@H](OC)C(=O)[C@H](C)C[C@H](C)/C=C/C=C/C=C1C

["> 11.5 µM", "43.7 µM", "> 200 µM", "> 200 µM", "7.59 µM"]

Batch lookup, IC50 per entry.
1. CN(C)c1ccc(C=C(C(=O)c2ccccc2)C(=O)c2ccccc2)cc1
2. O=C1CCCn2c(nc3ccccc32)N1
3. CC(=O)NC1C(O)OC(CO)C(O)C1OC(C)C(=O)N[C@@H](CC(N)=O)C(=O)N[C@H](CCC(=O)O)C(N)=O (some centres undefined)
4. COC(=O)CC1C2CC3C(C2=O)C13 (centres undefined)

["> 10.7 µM", "> 200 µM", "219 µM", "> 200 µM"]

Provenance of the data: PubChem BioAssay AID179
